# Assayed Target: Calcium Channel CaV1.2 (Homo sapiens, UniProt Q13936)
# Sequence (Q13936 whole entry): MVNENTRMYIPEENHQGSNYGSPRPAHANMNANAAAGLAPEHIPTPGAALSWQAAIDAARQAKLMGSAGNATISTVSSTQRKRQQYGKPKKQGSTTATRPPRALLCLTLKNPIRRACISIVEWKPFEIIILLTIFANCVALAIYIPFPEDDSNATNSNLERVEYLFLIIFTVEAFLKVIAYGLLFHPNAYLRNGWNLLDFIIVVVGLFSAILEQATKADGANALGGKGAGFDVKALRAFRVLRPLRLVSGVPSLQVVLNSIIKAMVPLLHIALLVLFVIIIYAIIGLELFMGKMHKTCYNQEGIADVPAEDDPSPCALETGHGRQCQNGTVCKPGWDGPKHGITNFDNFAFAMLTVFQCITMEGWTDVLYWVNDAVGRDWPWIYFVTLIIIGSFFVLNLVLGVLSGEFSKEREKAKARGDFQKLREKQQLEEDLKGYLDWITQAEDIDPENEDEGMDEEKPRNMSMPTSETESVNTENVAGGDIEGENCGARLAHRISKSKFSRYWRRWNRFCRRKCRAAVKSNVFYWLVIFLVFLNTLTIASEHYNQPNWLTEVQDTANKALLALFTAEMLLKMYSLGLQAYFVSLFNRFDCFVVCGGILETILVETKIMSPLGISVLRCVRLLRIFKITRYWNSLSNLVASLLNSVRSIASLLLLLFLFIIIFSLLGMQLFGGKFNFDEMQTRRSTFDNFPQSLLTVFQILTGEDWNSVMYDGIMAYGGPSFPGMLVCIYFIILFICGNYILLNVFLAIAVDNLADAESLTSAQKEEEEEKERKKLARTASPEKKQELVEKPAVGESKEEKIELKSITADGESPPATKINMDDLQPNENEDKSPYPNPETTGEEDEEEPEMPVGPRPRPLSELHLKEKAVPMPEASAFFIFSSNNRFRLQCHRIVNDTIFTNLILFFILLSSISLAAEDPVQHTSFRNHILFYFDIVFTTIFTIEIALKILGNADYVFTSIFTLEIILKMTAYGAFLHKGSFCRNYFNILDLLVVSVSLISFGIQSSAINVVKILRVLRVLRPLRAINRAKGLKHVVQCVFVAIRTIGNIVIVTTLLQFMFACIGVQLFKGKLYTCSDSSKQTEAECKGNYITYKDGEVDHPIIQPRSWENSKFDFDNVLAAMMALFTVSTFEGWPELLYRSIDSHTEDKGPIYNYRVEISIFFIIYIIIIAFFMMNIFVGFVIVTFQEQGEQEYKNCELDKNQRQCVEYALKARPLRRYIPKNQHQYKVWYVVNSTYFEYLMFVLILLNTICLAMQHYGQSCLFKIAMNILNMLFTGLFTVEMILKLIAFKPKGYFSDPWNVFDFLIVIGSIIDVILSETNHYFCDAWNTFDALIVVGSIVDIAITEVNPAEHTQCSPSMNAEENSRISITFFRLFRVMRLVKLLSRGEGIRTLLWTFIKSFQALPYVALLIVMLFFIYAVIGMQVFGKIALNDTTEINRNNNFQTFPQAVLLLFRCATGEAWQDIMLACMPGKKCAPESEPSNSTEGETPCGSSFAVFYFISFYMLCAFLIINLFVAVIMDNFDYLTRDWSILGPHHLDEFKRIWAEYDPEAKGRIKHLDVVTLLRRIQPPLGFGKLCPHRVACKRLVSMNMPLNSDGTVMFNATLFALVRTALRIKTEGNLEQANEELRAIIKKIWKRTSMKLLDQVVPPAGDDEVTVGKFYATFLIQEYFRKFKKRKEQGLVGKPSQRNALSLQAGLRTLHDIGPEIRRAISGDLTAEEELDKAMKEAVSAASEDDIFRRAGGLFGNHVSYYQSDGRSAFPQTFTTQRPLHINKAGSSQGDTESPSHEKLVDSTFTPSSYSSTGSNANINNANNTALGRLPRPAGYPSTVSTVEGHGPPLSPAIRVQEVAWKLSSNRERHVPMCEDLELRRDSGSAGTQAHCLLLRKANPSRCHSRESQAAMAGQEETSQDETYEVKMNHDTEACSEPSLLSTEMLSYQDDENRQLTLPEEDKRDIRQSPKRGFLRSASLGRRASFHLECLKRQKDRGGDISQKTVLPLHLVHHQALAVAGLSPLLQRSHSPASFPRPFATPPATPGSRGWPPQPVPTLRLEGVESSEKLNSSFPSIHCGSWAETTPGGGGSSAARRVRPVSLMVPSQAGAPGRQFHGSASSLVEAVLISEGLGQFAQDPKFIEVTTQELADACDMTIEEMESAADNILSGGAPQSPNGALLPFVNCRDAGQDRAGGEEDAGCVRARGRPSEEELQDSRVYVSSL
# Sequence (Q08289 whole entry partner): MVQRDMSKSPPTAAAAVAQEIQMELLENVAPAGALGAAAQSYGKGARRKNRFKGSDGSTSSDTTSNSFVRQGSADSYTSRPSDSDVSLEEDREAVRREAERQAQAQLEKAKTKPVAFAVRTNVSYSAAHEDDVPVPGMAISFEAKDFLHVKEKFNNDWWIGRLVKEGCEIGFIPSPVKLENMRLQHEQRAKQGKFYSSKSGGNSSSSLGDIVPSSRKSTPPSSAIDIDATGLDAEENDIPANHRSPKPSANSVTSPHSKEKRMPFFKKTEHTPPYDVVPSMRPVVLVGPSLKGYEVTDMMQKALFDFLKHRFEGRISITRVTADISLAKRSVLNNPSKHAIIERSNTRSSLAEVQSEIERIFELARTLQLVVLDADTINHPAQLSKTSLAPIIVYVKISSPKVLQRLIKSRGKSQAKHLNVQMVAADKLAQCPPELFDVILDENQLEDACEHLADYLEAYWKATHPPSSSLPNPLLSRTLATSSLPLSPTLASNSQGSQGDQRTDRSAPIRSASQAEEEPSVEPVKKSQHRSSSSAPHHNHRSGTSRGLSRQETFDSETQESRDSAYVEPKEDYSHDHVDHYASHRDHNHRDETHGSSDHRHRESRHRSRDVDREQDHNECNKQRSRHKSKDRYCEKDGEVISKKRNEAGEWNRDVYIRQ
# Sequence (P54289 25-956 partner limits assumed): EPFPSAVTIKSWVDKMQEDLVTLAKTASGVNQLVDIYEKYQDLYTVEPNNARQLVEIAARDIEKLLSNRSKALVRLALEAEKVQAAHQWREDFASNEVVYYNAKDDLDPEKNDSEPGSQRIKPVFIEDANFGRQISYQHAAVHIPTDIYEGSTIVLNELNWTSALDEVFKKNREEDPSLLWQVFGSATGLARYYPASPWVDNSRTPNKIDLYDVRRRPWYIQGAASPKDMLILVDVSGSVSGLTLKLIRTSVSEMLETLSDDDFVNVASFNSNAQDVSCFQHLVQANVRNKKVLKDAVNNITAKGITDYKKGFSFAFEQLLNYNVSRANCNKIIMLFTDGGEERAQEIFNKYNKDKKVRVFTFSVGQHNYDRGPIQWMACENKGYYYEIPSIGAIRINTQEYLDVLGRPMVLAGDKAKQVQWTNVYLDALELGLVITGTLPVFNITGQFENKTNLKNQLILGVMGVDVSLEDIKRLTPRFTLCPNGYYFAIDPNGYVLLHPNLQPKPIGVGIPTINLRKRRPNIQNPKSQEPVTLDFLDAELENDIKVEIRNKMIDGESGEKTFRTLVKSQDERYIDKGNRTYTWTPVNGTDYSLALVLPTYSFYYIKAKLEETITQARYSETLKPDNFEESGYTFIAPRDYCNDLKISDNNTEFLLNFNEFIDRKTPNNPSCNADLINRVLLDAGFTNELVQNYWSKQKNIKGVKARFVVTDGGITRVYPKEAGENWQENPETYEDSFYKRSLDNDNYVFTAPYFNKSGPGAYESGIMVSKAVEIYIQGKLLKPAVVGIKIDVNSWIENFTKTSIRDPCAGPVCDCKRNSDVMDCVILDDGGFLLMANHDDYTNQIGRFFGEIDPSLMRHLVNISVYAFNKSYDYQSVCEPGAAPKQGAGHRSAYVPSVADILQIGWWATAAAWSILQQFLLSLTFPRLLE
# Sequence (P54289 957-1103 partner limits assumed): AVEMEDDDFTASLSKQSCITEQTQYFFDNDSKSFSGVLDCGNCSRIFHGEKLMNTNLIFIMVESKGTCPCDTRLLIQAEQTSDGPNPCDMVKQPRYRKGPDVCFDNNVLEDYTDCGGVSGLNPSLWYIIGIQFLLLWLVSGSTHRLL
# Assay Info: Promiscuity screening panel, radiometric binding
# Protocol Conditions: read-out: % inhibition at 10 µM (n=2)
Endpoint Label: inhibition at 10 µM

GET /value?item= Nc1nonc1-c1nc2ccccc2n1Cc1ccncc1 [C101248] &field=inhibition at 10 µM returns 12%

====

# Assayed Target: THIK-1 (Homo sapiens, UniProt Q9HB14)
# Construct: expressed in transfected cells
# Sequence (Q9HB14 whole entry): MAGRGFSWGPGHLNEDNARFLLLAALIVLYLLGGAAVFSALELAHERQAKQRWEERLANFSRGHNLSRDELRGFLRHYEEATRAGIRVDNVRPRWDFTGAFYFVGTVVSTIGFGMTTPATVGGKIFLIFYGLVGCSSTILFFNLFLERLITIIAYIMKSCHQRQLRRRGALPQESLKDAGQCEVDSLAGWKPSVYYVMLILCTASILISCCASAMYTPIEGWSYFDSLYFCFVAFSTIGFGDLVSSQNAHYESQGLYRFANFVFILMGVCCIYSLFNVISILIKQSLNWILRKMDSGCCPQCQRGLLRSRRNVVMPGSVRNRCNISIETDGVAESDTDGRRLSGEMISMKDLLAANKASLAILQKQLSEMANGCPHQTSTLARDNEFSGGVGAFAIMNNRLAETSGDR
# Assay Info: FLIPR thallium influx assay, HEK-hTHIK-1 cells
# Format: cell-based
# Protocol Conditions: human THIK-1; read-out: IC50, inhibition of human THIK-1 (abstract)
Endpoint Label: IC50

So for "Nc1nonc1-c1nc2ccccc2n1Cc1ccncc1" , the logged IC50 turned out to be ~50 nM
